All values here come from the supplement of paper PMC6555819.

Test system: RARa homodimer (NR concentration 270 nM)
Assay: PBM binding z-score (relative to random genomic background probes); higher = stronger binding; sequences stand for … in GC…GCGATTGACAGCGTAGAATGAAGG
Assign Condition met whenever PBM binding z-score does not fall below 0.03; assign Condition not met whenever it does.

Reference set, count: 5
sequence record	label
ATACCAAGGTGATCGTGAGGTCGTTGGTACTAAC	Condition not met
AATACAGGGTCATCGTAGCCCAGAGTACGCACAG	Condition met
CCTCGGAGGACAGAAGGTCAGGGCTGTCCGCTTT	Condition not met
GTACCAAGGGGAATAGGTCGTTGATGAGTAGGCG	Condition met
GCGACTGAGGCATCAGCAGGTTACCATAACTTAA	Condition not met

# input // inclusive: PBM binding z-score at least 0.03? input: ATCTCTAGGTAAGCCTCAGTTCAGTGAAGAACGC
# output Condition met

# input Dear colleague, could you confirm whether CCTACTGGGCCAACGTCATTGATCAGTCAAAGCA has PBM binding z-score at or above 0.03?
# output Condition not met

====

Test system: PXR:RXRa (NR concentration 270 nM, RXRa partner concentration 90 nM)
Test: PBM binding z-score (relative to random genomic background probes); higher = stronger binding; sequences stand for … in GC…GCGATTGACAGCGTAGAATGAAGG
Quick list: PBM binding z-score per entry.
I'd appreciate a reply containing only the number, no unit.

Below, each entry is followed by its recorded PBM binding z-score result.
sequence record	study target	PBM binding z-score
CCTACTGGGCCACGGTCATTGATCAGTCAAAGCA	PXR:RXRa (NR concentration 270 nM, RXRa partner concentration 90 nM)	-0.436
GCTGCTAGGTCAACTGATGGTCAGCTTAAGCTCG	PXR:RXRa (NR concentration 270 nM, RXRa partner concentration 90 nM)	1.85
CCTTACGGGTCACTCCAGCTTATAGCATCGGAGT	PXR:RXRa (NR concentration 270 nM, RXRa partner concentration 90 nM)	2.52
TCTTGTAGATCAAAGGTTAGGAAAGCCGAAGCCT	PXR:RXRa (NR concentration 270 nM, RXRa partner concentration 90 nM)	1.04
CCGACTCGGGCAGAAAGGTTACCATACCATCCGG	PXR:RXRa (NR concentration 270 nM, RXRa partner concentration 90 nM)	0.674
GCATATAGGTAAGACAAGGTGAAAGTCCGATTGT	PXR:RXRa (NR concentration 270 nM, RXRa partner concentration 90 nM)	0.219

Form field PBM binding z-score for item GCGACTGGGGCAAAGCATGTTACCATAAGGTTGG on PXR:RXRa (NR concentration 270 nM, RXRa partner concentration 90 nM): -0.48

Let me check: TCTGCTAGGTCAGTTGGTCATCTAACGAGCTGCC , system PXR:RXRa (NR concentration 270 nM, RXRa partner concentration 90 nM), measured PBM binding z-score is 0.316

====

Tested on: FXR:RXRa (NR concentration 270 nM, RXRa partner concentration 90 nM)
Experiment: PBM binding z-score (relative to random genomic background probes); higher = stronger binding; sequences stand for … in GC…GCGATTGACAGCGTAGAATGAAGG
Reported PBM binding z-score values are given for each entry in this list.

sequence record	PBM binding z-score
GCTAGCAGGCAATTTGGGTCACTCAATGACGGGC	0.195
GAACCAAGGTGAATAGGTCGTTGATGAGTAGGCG	0.855
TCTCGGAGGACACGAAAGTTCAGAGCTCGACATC	1.03
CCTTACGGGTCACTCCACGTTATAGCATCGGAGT	4.04
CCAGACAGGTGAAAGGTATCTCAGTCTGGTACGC	-0.129
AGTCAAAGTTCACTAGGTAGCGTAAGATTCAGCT	5.23
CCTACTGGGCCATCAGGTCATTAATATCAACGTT	1.02
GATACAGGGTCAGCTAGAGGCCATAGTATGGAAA	4.67
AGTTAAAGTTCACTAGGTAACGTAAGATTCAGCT	4.84
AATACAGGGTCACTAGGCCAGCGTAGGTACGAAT	6.02

// PBM binding z-score value for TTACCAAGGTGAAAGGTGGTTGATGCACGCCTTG : 0.879

PBM binding z-score recorded for this sequence, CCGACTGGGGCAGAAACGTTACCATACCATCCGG , is -0.564

For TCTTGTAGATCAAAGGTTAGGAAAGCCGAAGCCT the sequence record lists PBM binding z-score as 1.26

get_value(item= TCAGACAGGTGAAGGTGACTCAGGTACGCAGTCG , readout=PBM binding z-score) returns 0.795

Reported PBM binding z-score for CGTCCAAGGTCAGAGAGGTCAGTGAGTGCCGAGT was 6.29
